biological target: T1, cynomolgus monkey GPVI extracellular domain fused at its C-terminus to human IgG1 Fc (GPVI-Fc) (cynomolgus monkey; human); test: ELISA, coated GPVI-Fc, Fab titrated
T1 construct: also called cyGPVI-2; cyGPVI
T1 sequence (chain, as listed by the source limits assumed): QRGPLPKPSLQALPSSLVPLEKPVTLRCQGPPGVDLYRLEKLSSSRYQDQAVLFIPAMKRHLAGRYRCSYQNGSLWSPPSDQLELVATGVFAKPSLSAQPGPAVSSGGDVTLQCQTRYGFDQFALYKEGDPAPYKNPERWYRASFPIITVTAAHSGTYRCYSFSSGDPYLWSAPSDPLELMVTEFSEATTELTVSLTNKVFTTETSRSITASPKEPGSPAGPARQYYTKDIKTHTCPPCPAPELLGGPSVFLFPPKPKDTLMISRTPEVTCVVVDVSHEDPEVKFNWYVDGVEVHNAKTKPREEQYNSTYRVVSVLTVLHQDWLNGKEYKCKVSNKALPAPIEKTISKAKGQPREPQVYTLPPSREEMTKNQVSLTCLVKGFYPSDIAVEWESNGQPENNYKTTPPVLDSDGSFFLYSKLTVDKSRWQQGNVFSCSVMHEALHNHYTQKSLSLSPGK
Metric name: pEC50
pEC50 here: minus log base 10 of the concentration, concentration in moles per litre.

Fill blank: measured pEC50 of the binder Fab #2 comprising a modified heavy chain constant region (Fab, V domains shown, Human Fab from the Ylanthia library; produced in HKB11 cells; also called Fab #2 mod; HC) VH: QVQLVESGGGLVKPGGSLRLSCAASGFSFSDHYMSWIRQAPGKGLEWVSSVGSEGKFIDYAASVKGRFTISRDNAKNSLYLQMNSLRAEDTAVYYCARHYREFRWHYYYFDYWGQGTLVTVSS VL: QSVLTQPPSVSGAPGQRVTISCTGSSSNIGAGYDVHWYQQLPGTAPKLLIYGNSNRPSGVPDRFSGSKSGTSASLAITGLQAEDEADYYCQSHDLGAHVWVFGGGTKLTVLG is ____.
9.38
